# MEASURED ON: T1, Gadd45β/MKK7 complex (biotin-hGadd45β with coated GST-MKK7, ELISA format) (human, UniProt O75293 1-160; O14733 1-419, biotinylated (sites not given))
# T1 construct: not shown: glutathione S-transferase (GST) fusion partner
# T1 sequence (looked up) 1: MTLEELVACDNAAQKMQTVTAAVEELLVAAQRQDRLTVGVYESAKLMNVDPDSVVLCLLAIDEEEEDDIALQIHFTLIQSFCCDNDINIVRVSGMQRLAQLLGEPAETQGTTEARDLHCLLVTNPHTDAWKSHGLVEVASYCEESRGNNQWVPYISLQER
# T1 sequence (looked up) 2: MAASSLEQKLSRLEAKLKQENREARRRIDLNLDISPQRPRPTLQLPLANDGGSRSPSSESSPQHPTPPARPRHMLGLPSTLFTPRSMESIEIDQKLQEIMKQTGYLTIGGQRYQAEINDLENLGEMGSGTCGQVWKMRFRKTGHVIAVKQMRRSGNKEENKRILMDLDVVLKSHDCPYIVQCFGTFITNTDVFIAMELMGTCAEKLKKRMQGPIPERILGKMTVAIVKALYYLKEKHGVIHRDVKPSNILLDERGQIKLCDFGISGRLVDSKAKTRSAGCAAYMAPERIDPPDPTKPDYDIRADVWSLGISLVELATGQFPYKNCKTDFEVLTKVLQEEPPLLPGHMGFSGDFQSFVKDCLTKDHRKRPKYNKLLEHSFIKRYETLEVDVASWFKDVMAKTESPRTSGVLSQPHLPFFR
# ASSAY NAME: competition ELISA; coated GST-MKK7, biotin-hGadd45β; single dose
* marks the point of attachment. ClZ = O=C(OCc1ccccc1Cl)*; Cbz = O=C(OCc1ccccc1)*; Myr = myristyl
RECORDED ENDPOINT: % Inhibition of Gadd45β-MKK7 binding (%)

Sample records with % Inhibition of Gadd45β-MKK7 binding:
Problem: Consider the binder shown here: Myr-YERF-NH2 [Myr-YERF-NH2] What is its recorded % Inhibition of Gadd45β-MKK7 binding?
Result: 37

Problem: Returns the measured % Inhibition of Gadd45β-MKK7 binding for the input binder. Input: Ac-YARF-NH2 [Ac-YARF-NH2]
Result: 17

Problem: % Inhibition of Gadd45β-MKK7 binding for {3‑OH‑4MeO‑benzoic acid}-YERF-NH2 [3-OH-4MeO-Benzoid acid-YERF-NH2] ?
Result: 86

Problem: Entry Cbz-YERF-NH2 (also called Z-LTP2) [Z-YERF-NH2] has what % Inhibition of Gadd45β-MKK7 binding?
Result: 78

Problem: Looking for the measured % Inhibition of Gadd45β-MKK7 binding of ClZ-YDHQ-NH2 [2CI-Z-YDHQ-NH2] , can you help?
Result: 40

P = Cbz-YDHQ-NH2 [Z-YDHQ-NH2]
Q = ClZ-YDHF-NH2 [2CI-Z-YDHF-NH2]
Problem: Higher % Inhibition of Gadd45β-MKK7 binding: P or Q ? Field: selected label. Fill in the label of the entry you choose.
Result: Q
(Q: 38%, P: 13%)

Value source: patent US20120277164A1
